Please go through the items and note down their TGI.
Test system: MALME-3M melanoma
methodDescription: NCI tumour cell line growth inhibition, 48 h
Answers are plain numbers, in µM.

Sc1ccc2ccccc2c1CNCc1ccccc1
78.5

Here's the next entry for you.
Specify measured TGI for NC(=NCCCC1(c2ccccc2)CCCC1)Nc1ccc(Cl)cc1 .
3.66

###

Please go through the items and note down their TGI.
Tested on: HOP-62 NSCLC
methodDescription: NCI tumour cell line growth inhibition, 48 h

CCSC1=N/C(=C\c2ccco2)C(NN)=N1
> 50 µM
N=c1oc2c(Br)cc(Br)cc2cc1C(=O)Nc1ccccn1
> 100 µM
COC(=O)[C@H]1C(=O)[C@@]2(C)[C@H]([C@H](OC(=O)c3ccccc3)[C@]3(O)C[C@H](OC(=O)[C@H](O)[C@@H](NC(=O)c4ccc(F)cc4)c4ccccc4)C(C)=C1C3(C)C)[C@]1(OC(C)=O)CO[C@@H]1C[C@@H]2O
> 6.58 µM
CC(C)/C(Cl)=N/OC(=O)Nc1cccc(C(F)(F)F)c1
32.1 µM

Here's the next entry for you.
Specify measured TGI for Cc1cc(N)ccc1N=Nc1ccc(S(=O)(=O)CCOS(=O)(=O)O)cc1 .
22.6 µM
